Assay details: chemical genetic growth profiling, strain panel (AID 1159580);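 further: tested at 20 µM; growth read once vehicle control cultures reached saturation at 30 °C; 1 = growth at the plate median or of vehicle wells; lower values mean less growth of the strain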
Setup conditions: S. cerevisiae deletion strains, growth OD, locus YOR119C, strain RIO1
About 2,000 (36%) of roughly 5,500 compounds were called active. Roughly 18% stayed inconclusive and do not appear here. No stated cut-off is given here; in the data, active means normalized growth mostly below about 0.91 (no sharp cut-off); inconclusive means no clear call, values can overlap the other calls; inactive means mostly above about 0.92. This is one part of the list.
Give one outcome, nothing more. List: 1 (active), 0 (inactive)

q: Tell me the recorded outcome of this test for CC(C)(C)c1ccc(C(=O)NNC(=S)Nc2ccc(Cl)cc2)cc1 .
a: 0

q: Tell me the recorded outcome of this test for CC(C)(C)C(=O)c1sc2sc(C(=O)C(C)(C)C)c(N)c2c1N .
a: 0

q: Tell me the recorded outcome of this test for Cn1nc(-c2ccccc2)c(O)c(N=Nc2ccccc2)c1=O .
a: 0

q: Tell me the recorded outcome of this test for O=c1c(-c2ccccc2)c(O)c2cccc3c4c(n1c23)CCCC4 .
a: 1

q: Tell me the recorded outcome of this test for CS/C(Nc1cccc(C(F)(F)F)c1)=C(/C#N)S(=O)(=O)c1ccc(Cl)cc1 .
a: 0

q: Tell me the recorded outcome of this test for CN1c2ccccc2C(C)(C)C12C=Cc1cc(O)ccc1O2 (centres undefined) .
a: 0

q: Tell me the recorded outcome of this test for FC(F)(F)c1cc(-c2ccc(Cl)cc2)n[nH]1 .
a: 0

q: Tell me the recorded outcome of this test for CC(=O)c1ccccc1C(=O)c1ccc(C(C)(C)C)cc1 .
a: 0

q: Tell me the recorded outcome of this test for S=C(Nc1ccc(Cl)cc1)Nc1ccc(Cl)cc1 .
a: 0

q: Tell me the recorded outcome of this test for N#C/C(=N/Nc1cccc(C(F)(F)F)c1)C(=O)c1csc(-c2cccnc2)n1 .
a: 0

q: Tell me the recorded outcome of this test for O=c1c(-c2ccccc2)c(O)c2cccc3c4ccccc4n1c23 .
a: 1

q: Tell me the recorded outcome of this test for C/C(=N/NC(=O)c1ccc(C(C)(C)C)cc1)c1ccccc1O .
a: 0

q: Tell me the recorded outcome of this test for COc1ccc(C2CC(c3ccc(C)cc3C)=NN2C(C)=O)cc1 (centres undefined) .
a: 0

q: Tell me the recorded outcome of this test for S=C(N/N=C\c1cccs1)NC1CC2CCC1C2 (centres undefined) .
a: 0

* * *

Assay details: chemical genetic growth profiling, strain panel (AID 1159580)
Setup conditions: S. cerevisiae deletion strains, growth OD, locus YPL106C, strain sse1, active compounds read low
Out of some 5,500 compounds screened, about 2,000 (36%) were called active. Roughly 18% stayed inconclusive and do not appear here. This is one part of the list.
Decision: normalized growth beneath 1 gives 1 (yes); normalized growth meeting or exceeding 1 gives 0 (no).

q: Dear colleague, could you confirm whether normalized growth of NCCc1c[nH]c2ccccc12 falls below 1? Thanks.
a: 1 (yes)

q: Dear colleague, could you confirm whether normalized growth of O=C(O)c1cc(=O)c2cccc(O)c2[nH]1 falls below 1? Thanks.
a: 0 (no)

q: Dear colleague, could you confirm whether normalized growth of COc1cc(-c2oc3cc(O)ccc3c(=O)c2O)ccc1O falls below 1? Thanks.
a: 1 (yes)

* * *

Assay details: chemical genetic growth profiling, strain panel (AID 1159580)
Setup conditions: S. cerevisiae deletion strains, growth OD, locus YNL006W, strain LST8
Among all 5,500 compounds or so, about 2,000 (36%) were called active. Not shown: some 18% with an inconclusive outcome. Cut-off read from the data, not from the text of the source: active = normalized growth mostly below about 0.91 (no sharp cut-off); inconclusive = no clear call, values can overlap the other calls; inactive = mostly above about 0.92. Some of the results follow.
Give one outcome, nothing more. List: active, inactive

q: Tell me the recorded outcome of this test for O=C(Nc1cc2c(s1)-c1cc(Cl)ccc1SC2)Oc1ccccc1 .
a: inactive

q: Tell me the recorded outcome of this test for O=c1c(-c2ccccc2)c(O)c2cccc3c4c(n1c23)CCCC4 .
a: inactive

q: Tell me the recorded outcome of this test for CCOC(=O)c1cnc2c(c(C)nn2C)c1Sc1nnc(SC)s1 .
a: active

q: Tell me the recorded outcome of this test for Cc1ccc(OCc2n[nH]c(=S)n2Cc2ccccc2)c2c1CCC2 .
a: inactive

q: Tell me the recorded outcome of this test for S=C(Nc1ccc(Cl)cc1)Nc1ccc(Cl)cc1 .
a: inactive

* * *

Assay details: chemical genetic growth profiling, strain panel (AID 1159580)
Setup conditions: S. cerevisiae deletion strains, growth OD, locus YJL134W, strain LCB3, active compounds read low
The campaign covered roughly 5,500 compounds. About 2,000 (36%) were called active. About 18% were inconclusive and are not listed. This is one part of the list.
Quantity measured: normalized growth
Answer as a number with no unit attached.

Looking up CC(=O)N[C@@H](Cc1c[nH]c2ccccc12)C(=O)O , I see its normalized growth listed as 1.01

Looking up O=C(O)c1cc(=O)c2cccc(O)c2[nH]1 , I see its normalized growth listed as 0.992

Looking up CC[C@H]1CN2CCc3cc(OC)c(OC)cc3C2C[C@@H]1CC1NCCc2cc(OC)c(OC)cc21 (some centres undefined) , I see its normalized growth listed as 1.01

Looking up CC1(C)C(=O)[C@@H]2C[C@@]3(O)C4=CC(=O)O[C@@H](c5ccoc5)[C@]4(C)CCC3[C@@](C)(C2=O)[C@H]1CC(=O)O (some centres undefined) , I see its normalized growth listed as 1

* * *

Assay details: chemical genetic growth profiling, strain panel (AID 1159580);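 further: tested at 20 µM; growth read once vehicle control cultures reached saturation at 30 °C; 1 = growth at the plate median or of vehicle wells; lower values mean less growth of the strain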
Setup conditions: S. cerevisiae deletion strains, growth OD, locus YOL006C, strain TOP1, active compounds read low
The campaign covered roughly 5,500 compounds. About 2,000 (36%) were called active. About 18% were inconclusive and are not listed. Some of the results follow.
Kindly state normalized growth for each of the entries shown.
Answer as a number with no unit attached.

Looking up CC(N)C(O)c1ccc(O)c(O)c1 (stereo not drawn) , I see its normalized growth listed as 1.02

Looking up O=C(CCBr)N1CCN(C(=O)CCBr)CC1 , I see its normalized growth listed as 1.02

Looking up CN[C@@H]1[C@@H](O[C@H]2O[C@H](CO)[C@@H](N)[C@H](O)[C@H]2O)O[C@H]2C[C@@H](N)[C@H](O[C@H]3[C@H](O)[C@@H](O)[C@H](N)C[C@@H]3N)O[C@@H]2[C@@H]1O , I see its normalized growth listed as 1

* * *

Assay details: chemical genetic growth profiling, strain panel (AID 1159580);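 further: tested at 20 µM; growth read once vehicle control cultures reached saturation at 30 °C; 1 = growth at the plate median or of vehicle wells; lower values mean less growth of the strain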
Setup conditions: S. cerevisiae deletion strains, growth OD, locus YCL069W, strain vba3, active compounds read low
Hit rate of the full screen: of about 5,500 compounds, about 2,000 (36%) were called active. Not shown: some 18% with an inconclusive outcome. The list shows a part of the results. *1 amine or outer side, *2 acyl side, *3 side chain or, on linkers, in order; H or OH if unused. Where a SMILES comes first, the peptide text is derived from it. Bridges are numbered along the chain shown (N, C = ends). [ ]: non-standard residue; d: D form. The star is where a group is joined. ξ: configuration not given here. ΔAla(E,3-NHCONH2) = NC(=O)N/C=C(/N)C(=O)O; X2 = NC1=NCCC(C(N[*:1])C(=O)[*:2])N1; ξβ3hOrn = NCCCC(N)CC(=O)*; Dap = NC[CH](N)C(=O)O
Kindly state normalized growth for each of the entries shown.
Answer as a number with no unit attached.

Looking up CC(=O)[O][Hg][c]1ccccc1 , I see its normalized growth listed as 0.062

Looking up CC1=NN(c2ccccc2)C(=O)C1 , I see its normalized growth listed as 0.986

Looking up COc1cc(-c2oc3cc(O)ccc3c(=O)c2O)ccc1O , I see its normalized growth listed as 0.987

Looking up NCCCC(N)CC(=O)NCC1NC(=O)C(CO)NC(=O)C(N)CNC(=O)C(C2CCN=C(N)N2)NC(=O)/C(=C\NC(N)=O)NC1=O (stereo not drawn) (H-[Dap]S[Dap](ξβ3hOrn)[ΔAla(E,3-NHCONH2)][X2]; lactam 1-C; configuration not given here) , I see its normalized growth listed as 1.01

Looking up Cc1cc(C(C)(C)C)cc(C)c1CC1=NCCN1 , I see its normalized growth listed as 1

Looking up COc1ccc(-c2oc3ccccc3c(=O)c2O)cc1OC , I see its normalized growth listed as 0.762

* * *

Assay details: chemical genetic growth profiling, strain panel (AID 1159580);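 further: tested at 20 µM; growth read once vehicle control cultures reached saturation at 30 °C; 1 = growth at the plate median or of vehicle wells; lower values mean less growth of the strain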
Setup conditions: S. cerevisiae deletion strains, growth OD, locus YHR087W, strain rtc3, active compounds read low
Screen size: about 5,500 compounds; about 2,000 (36%) were called active. Another 18% or so got no clear call; they are omitted. Some of the results follow.
Decision: normalized growth beneath 1 gives Met; normalized growth meeting or exceeding 1 gives Not met.

q: Dear colleague, could you confirm whether normalized growth of O=C1c2ccccc2C(=O)C1c1ccccc1 falls below 1? Thanks.
a: Met

q: Dear colleague, could you confirm whether normalized growth of O=C1CC2(CCCC2)C(=O)N1CCNc1nccc(C(F)(F)F)n1 falls below 1? Thanks.
a: Not met

q: Dear colleague, could you confirm whether normalized growth of O=c1cc(C(F)(F)F)[nH]c2cc(Cl)cc(Cl)c12 falls below 1? Thanks.
a: Met

q: Dear colleague, could you confirm whether normalized growth of COC(=O)c1scc(S(=O)(=O)C(C)C)c1N/N=C(/C#N)C(=O)c1ccccc1 falls below 1? Thanks.
a: Met
